system: K-562 leukemia; experiment: NCI tumour cell line growth inhibition, 48 h
We begin with a simple list: items and their reported TGI.

Record excerpt, results attached:
* CC(=O)O[C@H]1CSC[C@@H](OC(C)=O)C1[N+](=O)[O-] (stereo partly drawn) | > 100 µM
* Clc1ccc(Cc2nc3cc4ccccc4cc3[nH]2)cc1Cl | 83 µM
* Cc1ccccc1NC(=O)C(=O)C(C(=O)c1ccccc1F)C1OC(=O)c2ccccc21 (stereo not drawn) | > 100 µM
* O=C(CC1(O)C(=O)Nc2ccc(Cl)cc21)c1ccc(C(=O)NCC2CCC3(CC2)OOC2(CCCCC2)OO3)cc1 (stereo not drawn) | 4.48 µM
* CC1=Nc2ccccc2S/C1=C1/C=NC(=NC#N)N=C1C(=O)Nc1cccc(Cl)c1 | > 100 µM

Q. Indicate its recorded TGI; the compound in question is CN(N=O)c1ccc(/C=C/c2ccnc3ccccc23)cc1
A. > 100 µM

====

system: BT-549 breast; test: NCI tumour cell line growth inhibition, 48 h
metric: TGI (µM)
Answer with a number only, understood to be in µM.

Answered examples (5):
• CC(C)C1OC(=O)C(Cc2ccccc2)N(C)C(=O)C(C(C)C)OC(=O)C(Cc2ccccc2)N(C)C(=O)C(C(C)C)OC(=O)C(Cc2ccccc2)N(C)C1=O (stereo not drawn) = 3.01
• O=C(O)CCCCCNCc1cc2cc3c(cc2c2cc(OCc4ccccc4)ccc12)OCO3 = 24.1
• CC1=C(C(=S)Nc2ccc(Cl)c(C(=O)OC(C)C)c2)SCCO1 = 37.8
• O=C1c2ccccc2C(=O)c2c1ccc1c3ccccc3n(-c3ccccc3)c21 = 51.3
• COc1ccc(/C=C\c2cc(OC)c(OC)c(OC)c2)cc1NC(=O)/C=C/c1cc(OC)c(OC)c(OC)c1 = 77.4

Q. Tell me its TGI given COc1cc(C2c3cc4c(cc3[C@@H](Nc3ccc(F)cc3)C3COC(=O)[C@H]23)OCO4)cc(OC)c1O (stereo partly drawn) as the entry.
A. 8.39

Q. Return TGI for the following molecule: O=C(CC1(O)C(=O)Nc2ccc(Cl)cc21)c1ccc(C(=O)NCC2CCC3(CC2)OOC2(CCCCC2)OO3)cc1 (stereo not drawn)
A. 16.1

Q. Supply recorded TGI for C=CC[PH+](c1ccccc1)c1ccccc1.C=CC[PH+](c1ccccc1)c1ccccc1.[Pt+2].[S-]c1nc2ccccc2[nH]1.[S-]c1nc2ccccc2[nH]1 here.
A. 5.54

====

test system: CAKI-1 renal; assay: NCI tumour cell line growth inhibition, 48 h
metric: TGI

• COc1ccc2cc(CNCCCCCCNC(=O)Nc3cccc4ccccc34)ccc2c1 = > 100 µM
• N#CCCN(C(=O)Nc1ccc(NC(=O)N(CCC#N)c2ccccc2)cc1)c1ccccc1 = > 100 µM
• NP1(Oc2ccc(F)cc2)=NP(N)(Oc2ccc(F)cc2)=NP(Oc2ccc(F)cc2)(Oc2ccc(F)cc2)=N1 (stereo not given) = 21.8 µM
• OC[C@H]1C[C@](O)(c2ccccc2Cl)[C@@H](c2ccccc2Cl)O1 = 86.1 µM
• COC(=O)[C@@H]1CN(C(=O)Cc2ccccc2)C(=O)N1 = > 100 µM
• Cc1nc2ccccc2c(=O)n1/N=C(\N=Nc1cc(Cl)ccc1Cl)c1ccc(N(C)C)cc1 = 79.8 µM

Q. Fill: TGI (CAKI-1 renal) for this compound O=C(Nc1c[nH]c(=O)[nH]c1=O)Oc1ccccc1
A. > 100 µM

Q. Provide measured TGI on CAKI-1 renal for CCOC(=O)/C(C(=O)c1ccc[nH]1)=C1/CCCN1C please.
A. > 100 µM

Q. Specify the recorded TGI for CSCSCC(CO)NC(=O)/C=C/c1c(C)[nH]c(=O)[nH]c1=O (stereo not given) , system: CAKI-1 renal.
A. > 100 µM

Q. # return TGI of CCOc1c2c(cc3c1C(=O)c1c(OC)cccc1C3=O)C=C(OC)CC2 (system: CAKI-1 renal)
A. > 25 µM

====

tested on: HCT-116 colon; assay: NCI tumour cell line growth inhibition, 48 h
metric: TGI

The examples below pair each entry with its known result.
• O=C(CC1(O)C(=O)Nc2ccccc21)c1cccc(O)c1 (stereo not drawn) = > 100 µM
• Cc1cccc(NC(=S)NNC(=O)c2cc(-c3ccccc3)nc3ccccc23)c1 = 48.4 µM
• O=C(OC[C@H]1C[C@H]2C(=O)OCCC[C@H]2O1)c1ccccc1 = > 100 µM
• CCN(CC)C(=O)N[C@@H](CC(C)C)C(=O)NC = > 100 µM
• O=C(CC(C(=O)c1ccsc1)c1cccs1)c1cccs1 (stereo not drawn) = > 100 µM

Q. Provide one value: measured TGI of COc1cc(C(=O)/C=C/c2c[nH]c3ccccc23)cc(OC)c1OC
A. 16.9 µM

Q. Supply reported TGI belonging to this compound: N#Cc1ccc2c(-c3ccnc(NC4CC4)n3)c(-c3ccc(F)cc3)nn2c1
A. > 25 µM

Q. State its TGI: CCOC(=O)CN(CC)C(=O)NC12CC3CC(CC(C3)C1)C2
A. 522 µM

====

Let's look at some compounds and their measured log10 of TGI.
test system: SK-MEL-2 melanoma; test: NCI tumour cell line growth inhibition, 48 h
A value of 2 here means TGI of 100 in µM, since values are log10.

Consider the reported log10 of TGI for these compounds:
• N#CC1=C(N)OC2=C(CCCc3ccc([N+](=O)[O-])cc32)C1c1ccc(Cl)cc1 (centres undefined) = 1.74
• C=CCN(C(C)=O)c1cc(OCc2ccccc2)c2c(c1)c(C)cn2S(=O)(=O)c1ccccc1 = 1.09
• CCOC(=O)CN(CC)C(=O)NC12CC3CC(CC(C3)C1)C2 = 2.45
• O=C1N[C@@H]([C@H]2CC[C@H](Cl)CN2)C(=O)N[C@H]1[C@H]1CC[C@H](Cl)CN1 = 0.90

Please turn your attention to the following entry.
Q. Please indicate log10 of TGI recorded for CCOC(=O)c1c(CN2CCCCC2)nc2ccc(Cl)cc2c1-c1ccccc1
A. 1.61

====

tested on: A549 NSCLC; assay: NCI tumour cell line growth inhibition, 48 h
TGI for assorted compounds

// worked examples, TGI included
* COC(=O)[C@]12CC[C@@H](C)[C@H](C)[C@@H]1C1=CC[C@@H]3[C@@]4(C)C[C@@H](OC(C)=O)[C@H](OC(C)=O)[C@@](C)(COC(C)=O)[C@@H]4[C@H](O)C[C@@]3(C)[C@]1(C)CC2 | > 100 µM
* COc1ccc(/C=N/n2c(-c3ccccc3)n[nH]c2=O)c(OC)c1 | > 100 µM
* COc1cc(/C=N\Nc2ccccc2)ccc1OC(=O)c1ccccc1 | 37.5 µM
* C1CCC(CC2CCC(NC3=NCCO3)CC2)CC1 (stereo not given) | > 100 µM
* CN1N=C(c2ccncc2)OC1c1ccc(C(F)(F)F)cc1 (stereo not given) | > 100 µM
* O=C1c2ccccc2-c2cn(Cc3ccccc3)c3cccc(c23)C1c1cccnc1 (stereo not given) | > 50 µM

Q. Quote TGI reported for COc1ccc2nc(-c3ccc(N)cc3)sc2c1 please.
A. > 100 µM

Q. Please report the measured TGI for CN(C(=O)C12C3C4C1C1C2C3C41C#N)C(C)(C)C (stereo not given)
A. > 100 µM

Q. Give a short answer stating reported TGI for Cc1ccc(C)c(N2CCN(c3ccncc3N)CC2)c1 .
A. > 100 µM

Q. Indicate the recorded TGI value for this compound: C/C(=C\COP(=O)(O)OP(=O)(O)O)CC/C=C(\C)CNc1c(F)c(F)c(F)c(F)c1F
A. > 100 µM

====

system: COLO 205 colon; assay: NCI tumour cell line growth inhibition, 48 h; in the data active means GI50 below about 0.43 µM; inactive means the rest
One label from this list, please: active, inactive

// known answers, use as guide
- C=CC[PH+](c1ccccc1)c1ccccc1.C=CC[PH+](c1ccccc1)c1ccccc1.[Pt+2].[S-]c1nc2ccccc2[nH]1.[S-]c1nc2ccccc2[nH]1: inactive
- CCOC(=O)c1c(CN2CCCCC2)nc2ccc(Cl)cc2c1-c1ccccc1: inactive
- COc1cc(/C=N\Nc2ccccc2)ccc1OC(=O)c1ccccc1: inactive
- COc1cccc(/C=C\C(=O)c2ccccc2)c1: inactive
- COc1cc(F)c(F)c(Nc2ccc(I)cc2F)c1NS(=O)(=O)C1(CC(O)CO)CC1 (stereo not given): inactive
- O=C(c1ccccc1)c1nn(-c2cccc(Cl)c2)c2nc3nc(-c4ccccc4)cc(=O)n3nc12: inactive

Q. Hi team, can someone confirm the assay call for CC/C(=C/c1ccc(OC)cc1)[N+](=O)[O-] ?
A. inactive

Q. Assay result, entry COc1ccc([C@@H]2[C@@H](Cl)C(=O)N2c2cc(OC)c(OC)c(OC)c2)cc1C — outcome?
A. active

Q. Given COc1cc(OC)c(/C=C/S(=O)(=O)Cc2ccc(OC)c(N)n2)c(OC)c1 , state the outcome it received in this test.
A. active

Q. Field: outcome | Entry: COc1cc(/C=N/NC(=O)c2cnn3c2NC(c2ccccc2)C3)ccc1OCc1ccccc1 (stereo not given)
A. inactive
